The origin of these recorded values is ChEMBL document CHEMBL5608250.

- TEST_NAME: Inhibition of 6His-tagged recombinant HIV-1 integrase/biotinylated HIV-1 transactivation response element RNA interaction assessed as […] preincubated with integrase for 2 hrs followed by RNA addition and measured after 1 hrs by ALPHAscreen based AlphaLISA
- Design: species or system Human immunodeficiency virus 1
Kindly supply the reported IC50 values for the records listed here.
Reply with the number, then its unit.

Solved cases below.
O=C(O)/C(O)=C/C(=O)c1ccc2c(c1)c(=O)c(C(=O)/C=C(\O)C(=O)O)cn2Cc1ccc(F)cc1 | 0.84 µM
CCOC(=O)/C(O)=C/C(=O)c1ccc2[nH]cc(C(=O)/C=C(\O)C(=O)OCC)c(=O)c2c1 | 2.22 µM
CN(C)c1cc2c(cc1C(=O)/C=C(\O)C(=O)O)c(=O)c(C(=O)/C=C(\O)C(=O)O)cn2Cc1ccc(F)cc1 | 0.75 µM
CCOC(=O)/C(O)=C/C(=O)c1cc2c(=O)c(C(=O)/C=C(\O)C(=O)OCC)cn(Cc3ccc(F)cc3)c2cc1N(C)C | 1.04 µM
O=C(O)/C(O)=C/C(=O)c1cn(Cc2ccc(F)cc2)c2ccc(C(=O)c3ccc(C(=O)O)cc3)cc2c1=O | 1.57 µM

Please give IC50, item by item, for the list that follows.
1. CCOC(=O)/C(O)=C/C(=O)c1cc2c(=O)c(C(=O)/C=C(\O)C(=O)OCC)cn(Cc3ccc(F)cc3)c2cc1N1CCN(C)CC1
2. CCOC(=O)/C(O)=C/C(=O)c1ccc2c(c1)c(=O)c(C(=O)/C=C(\O)C(=O)OCC)cn2Cc1ccc(F)cc1
3. O=C(O)/C(O)=C/C(=O)c1ccc2[nH]cc(C(=O)/C=C(\O)C(=O)O)c(=O)c2c1

1: 4.19 µM; 2: 1.98 µM; 3: 1.33 µM
